- test_system: Muscarinic acetylcholine receptor M1 (Rattus norvegicus)
- experimental_details: blockers of ACh-evoked M1 calcium signal – CHO cells, Fluo-4 calcium, duplicate, confirmation (AID 677);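 note: raw fluorescence intensity difference in arbitrary instrument units and not normalized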
- condition_label: ACh EC80 antagonism, at 10 µM, stronger effect = lower value
Out of some 1,700 compounds screened, about 720 (42%) were called active. The set was probably picked from earlier hits. Only a sample is shown.
measurement_label: calcium response (max-min fluorescence)
// response body must contain only the number

| molecule | test_system | calcium response (max-min fluorescence) |
| --- | --- | --- |
| Cc1ccccc1C(OCC(O)CN1CCCCC1CCO)c1ccccc1 (stereo unspecified) | Muscarinic acetylcholine receptor M1 (Rattus norvegicus) | 337 |
| CCC(=O)c1ccc(OCC(O)CN2CCN(c3cccc(C(F)(F)F)c3)CC2)cc1 (stereo unspecified) | Muscarinic acetylcholine receptor M1 (Rattus norvegicus) | 531 |
| COc1cc(OC)c(C(=O)NC2CC(C)(C)NC(C)(C)C2)cc1OC | Muscarinic acetylcholine receptor M1 (Rattus norvegicus) | 510 |
| CCOC(=O)C1=C(CC)Nc2ccccc2N=C1NC(=O)c1cccc(S(=O)(=O)N2CCCC2)c1 | Muscarinic acetylcholine receptor M1 (Rattus norvegicus) | 466 |
| CCCCN(CCCC)C(=O)CCS(=O)(=O)c1ccc2c(c1)n(C)c(=O)c(=O)n2C | Muscarinic acetylcholine receptor M1 (Rattus norvegicus) | 581 |
| Cc1ccc(-c2csc3nnc(SCC(=O)NCc4ccco4)n23)cc1 | Muscarinic acetylcholine receptor M1 (Rattus norvegicus) | 620 |
| CC12CN(Cc3ccccc3)CC(C)(CN(Cc3ccccc3)C1)C2=NO | Muscarinic acetylcholine receptor M1 (Rattus norvegicus) | 113 |
| O=C(CCCN1C(=O)CSc2ncccc21)N1CCN(c2cccc(C(F)(F)F)c2)CC1 | Muscarinic acetylcholine receptor M1 (Rattus norvegicus) | 462 |

Prompt line: Can you look up the measured calcium response (max-min fluorescence) of CCOC(=O)N1CCN(C(=O)C2CCCN(c3ncnc4c3sc3cccc(F)c34)C2)CC1 (stereo unspecified) for me?
Response line: 126
